B1: Twister Ribozyme (parent)
chain: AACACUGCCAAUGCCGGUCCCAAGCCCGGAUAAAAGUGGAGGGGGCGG

Variants of: B1
experiment_notes: self-cleavage, relative activity (ratio to wild type); higher = more cleavage; co-transcriptional
measurement_name: self-cleavage

change="G7A A30U" observed_measurement=0.425
change="C9U G38U" observed_measurement=0.395
change="C15A C19A" observed_measurement=0.0896
change="U31A A34U" observed_measurement=1.07
change="C14U C27A" observed_measurement=0.586
change="C3U G42C" observed_measurement=0.159
change="U12A U31C" observed_measurement=1.13
change="A4U G42C" observed_measurement=0.103
change="A33C G43A" observed_measurement=0.17
change="A10C U18G" observed_measurement=0.0601
change="U6G A40C" observed_measurement=0.0854
change="C5U G39C" observed_measurement=0.171
change="G28C G41U" observed_measurement=0.332
change="U12G G47C" observed_measurement=0.528
change="G7C G36U" observed_measurement=0.0725
change="A30U G41U" observed_measurement=0.712
change="U31A A32U" observed_measurement=1.05
change="G28C A40U" observed_measurement=0.17
change="A11C C21G" observed_measurement=0.118
change="C19A G24A" observed_measurement=0.0849
change="U6A C25G" observed_measurement=0.121
change="A10G G17U" observed_measurement=0.388

Data provenance: the RNAGym collection of RNA variant scans (doi:10.7554/elife.80360)
